The origin of these recorded values is paper PMC10569036.

assay: shake flask on a mixture of 185; loss from the water phase only; LC-Orbitrap peak areas; details: room
TEST_READOUT: log partition cyclohexane / HPLC water, unbuffered, traces of methanol / DMSO (log10)

[
  {
    "MOLECULAR_STRING": "O=C(c1ccccc1)c1ccc(O)cc1O",
    "UNIT_INFO": "log10",
    "DATA_VALUE": -0.5373
  },
  {
    "MOLECULAR_STRING": "COC(=O)c1ccc(C(=O)OC)c(C(=O)OC)c1",
    "UNIT_INFO": "log10",
    "DATA_VALUE": 1.164
  },
  {
    "MOLECULAR_STRING": "CCCCCCOc1cc(C)c(O)c(C)c1C",
    "UNIT_INFO": "log10",
    "DATA_VALUE": -0.4525
  },
  {
    "MOLECULAR_STRING": "OCCN(CCO)c1ccccc1",
    "UNIT_INFO": "log10",
    "DATA_VALUE": -0.9006
  },
  {
    "MOLECULAR_STRING": "CO/N=C(/C1=NOCCO1)c1ccccc1Oc1ncnc(Oc2ccccc2Cl)c1F",
    "UNIT_INFO": "log10",
    "DATA_VALUE": 1.413
  }
]
